Reference source for all entries: paper PMC9436075

- ASSAY TARGET: TaPGIp (Triticum aestivum, UniProt A0A3B6LNA8)
- Construct: plastid PGI, CTD 467-557, transit peptide probably removed; homodimer
- Sequence (A0A3B6LNA8 64-620): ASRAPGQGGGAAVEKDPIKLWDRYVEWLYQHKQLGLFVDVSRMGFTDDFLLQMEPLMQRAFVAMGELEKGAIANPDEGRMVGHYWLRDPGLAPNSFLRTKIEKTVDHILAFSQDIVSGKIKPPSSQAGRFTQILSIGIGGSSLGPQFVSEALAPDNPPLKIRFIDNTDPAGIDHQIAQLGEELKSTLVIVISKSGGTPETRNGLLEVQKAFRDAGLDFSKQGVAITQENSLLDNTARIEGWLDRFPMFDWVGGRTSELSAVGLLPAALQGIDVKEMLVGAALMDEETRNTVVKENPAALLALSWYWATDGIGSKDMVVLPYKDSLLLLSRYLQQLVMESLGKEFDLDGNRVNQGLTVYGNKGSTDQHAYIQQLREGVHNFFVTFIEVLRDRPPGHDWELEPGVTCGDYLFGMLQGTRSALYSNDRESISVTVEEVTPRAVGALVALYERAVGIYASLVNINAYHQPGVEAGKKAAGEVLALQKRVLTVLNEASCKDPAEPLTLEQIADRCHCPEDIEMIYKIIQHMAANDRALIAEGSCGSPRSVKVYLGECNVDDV
- TEST PROTOCOL: PGI activity inhibition, dose-response
- TEST CONDITIONS: read-out: IC50E4P
MEASUREMENT TYPE: pIC50
Give bare numbers, as −log10 of the molar value.

Prompt line: Please supply the value of reported pIC50 for the item O=C[C@H](O)[C@H](O)COP(=O)(O)O [E4P, erythrose 4-phosphate]
Response line: 3.12

###

- ASSAY TARGET: TaPGIc (Triticum aestivum)
- Construct: cytosolic PGI, CTD 510-567, HLHM 444-466; homodimer
- Sequence (Q1PBI3 1-567): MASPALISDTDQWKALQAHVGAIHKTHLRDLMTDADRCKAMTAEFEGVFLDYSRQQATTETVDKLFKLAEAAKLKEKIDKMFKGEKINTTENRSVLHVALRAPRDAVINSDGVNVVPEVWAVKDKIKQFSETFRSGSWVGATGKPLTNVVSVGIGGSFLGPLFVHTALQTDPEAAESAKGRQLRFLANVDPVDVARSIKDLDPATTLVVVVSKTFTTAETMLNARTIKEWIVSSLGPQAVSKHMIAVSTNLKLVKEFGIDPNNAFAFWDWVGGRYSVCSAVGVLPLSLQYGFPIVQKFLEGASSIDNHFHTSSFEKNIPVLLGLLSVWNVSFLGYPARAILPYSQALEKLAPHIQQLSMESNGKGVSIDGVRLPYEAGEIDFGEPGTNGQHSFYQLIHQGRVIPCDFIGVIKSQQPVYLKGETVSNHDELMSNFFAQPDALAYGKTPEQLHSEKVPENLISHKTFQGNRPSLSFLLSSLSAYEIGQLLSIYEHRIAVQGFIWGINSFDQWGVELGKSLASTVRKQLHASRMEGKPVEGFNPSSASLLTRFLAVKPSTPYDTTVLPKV
- TEST PROTOCOL: PGI activity inhibition, dose-response
- TEST CONDITIONS: read-out: IC50E4P
MEASUREMENT TYPE: IC50 (µM)
Answers are plain numbers, in µM.

Prompt line: Report measured IC50; entry is O=C[C@H](O)[C@H](O)COP(=O)(O)O [E4P, erythrose 4-phosphate]
Response line: 130
